test: Pharmacokinetics, single oral gavage, 2 formulations, Wistar and Sprague-Dawley rats
Assay type: in vivo
condition details: male, Wistar, rat, plasma, po, 150 mg/kg, Formulation 2, Wistar (Male)
measure name: AUC(0-t) (ng·h/mL)

{"query smiles": "Cc1cc(Cl)c(COc2cccc3c(-n4cc(F)cn4)cc(C)nc23)c(Cn2cccc(C#N)c2=O)n1", "unit string": "ng·h/mL", "measured": 199}

----------
test: Pharmacokinetics, single oral gavage, Yucatan mini-pig
Format: in vivo, female Yucatan Miniature Swine
condition details: female, Yucatan, pig (miniature swine), plasma; PO 10 mg/kg, 4.0 hr; read-out: Average Concentration of HGT3711

{"query smiles": "Cc1cc(Cl)c(COc2cccc3c(-n4cc(F)cn4)cc(C)nc23)c(Cn2cccc(C#N)c2=O)n1", "unit string": "ng/mL", "concentration at 4 hr": 1150}
